assay_remarks: In vivo biodistribution in mice
Design: species or system normal CD-1 male mice
condition_summary: iv, 60 min (1 hr) post injection
Each item that follows carries a reported Biodistribution: Brain.
Numbers only here, please. The scale is % dose/g.

Record excerpt, results attached:
compound: O=C([O-])CN(CCN(CC(=O)[O-])Cc1cc(CCC(=O)NC(P(=O)(O)O)P(=O)(O)O)ccc1[O-])Cc1cc(CCC(=O)NCCCCCC(=O)NCCCC[C@H](NC(=O)N[C@@H](CCC(=O)O)C(=O)O)C(=O)O)ccc1[O-].[68Ga+3] [[^68Ga]1g]
unit_abbrev: % dose/g
numeric_value: 0.03
//
compound: O=C([O-])CN1CCN(CC(=O)[O-])CCN(CC(=O)NCCNC(=O)CCc2ccc(O)c(CN(CCN(CC(=O)O)Cc3cc(CCC(=O)NC(P(=O)(O)O)P(=O)(O)O)ccc3O)CC(=O)O)c2)CCN(CC(=O)[O-])CC1.[177Lu+3] [[^177Lu]1h]
unit_abbrev: % dose/g
numeric_value: 0.01

In: Consider the compound shown here: O=C([O-])CN(CCN(CC(=O)[O-])Cc1cc(CCC(=O)N[C@@H](CCC(=O)O)C(=O)O)ccc1[O-])Cc1cc(CCC(=O)NC(P(=O)(O)O)P(=O)(O)O)ccc1[O-].[68Ga+3] [[^68Ga]1f] What is its recorded Biodistribution: Brain?
Out: 0.01

In: Quick one: O=C([O-])CN(CCN(CC(=O)[O-])Cc1cc(CCC(=O)NC(P(=O)(O)O)P(=O)(O)O)ccc1[O-])Cc1cc(CCC(=O)NC(P(=O)(O)O)P(=O)(O)O)ccc1[O-].[68Ga+3] [[^68Ga]2]
Out: 0.02

In: Quick one: O=C([O-])CN(CCN(CC(=O)[O-])Cc1cc(CCC(=O)N[C@@H](CC(=O)O)C(=O)O)ccc1[O-])Cc1cc(CCC(=O)NC(P(=O)(O)O)P(=O)(O)O)ccc1[O-].[68Ga+3] [[^68Ga]1e]
Out: 0.01

---

assay_remarks: In vivo biodistribution in mice
Design: species or system normal CD-1 male mice
condition_summary: iv, 120 min post injection
Description: Biodistribution experiments were performed by intravenously administering ^68Ga labeled 1a-h, 2, 3, BPAMD, and [^18F]NaF into normal, healthy male CD-1 mice (25-30 g). The injection activity was 20-30 μCi/animal. […] Organs of interest were harvested, weighed, and counts of radioactivity were measured by a gamma counter. The biodistribution of each sample was calculated as a percentage of the injected dose per gram of wet tissue weight (% ID/g). […]
recorded_metric: Biodistribution: Muscle
Returns: string containing the number followed by the unit.

Record excerpt, results attached:
compound: O=C([O-])CN(CCN(CC(=O)[O-])Cc1cc(CCC(=O)NC(P(=O)(O)O)P(=O)(O)O)ccc1[O-])Cc1cc(CCC(=O)O)ccc1[O-].[68Ga+3] [[^68Ga]1a]
result: 0.05 ± 0.01 % dose/g

compound: [18F-].[Na+] [[^18F]NaF, reference compound]
result: 0.04 ± 0.04 % dose/g

compound: C[C@H](NC(=O)CCc1ccc([O-])c(CN(CCN(CC(=O)[O-])Cc2cc(CCC(=O)NC(P(=O)(O)O)P(=O)(O)O)ccc2[O-])CC(=O)[O-])c1)C(=O)O.[68Ga+3] [[^68Ga]1d]
result: 0.04 ± 0.01 % dose/g

In: Consider the compound shown here: O=C([O-])CN(CCN(CC(=O)[O-])Cc1cc(CCC(=O)NC(P(=O)(O)O)P(=O)(O)O)ccc1[O-])Cc1cc(CCC(=O)NC(P(=O)(O)O)P(=O)(O)O)ccc1[O-].[68Ga+3] [[^68Ga]2] What is its recorded Biodistribution: Muscle?
Out: 0.23 ± 0.05 % dose/g

Taken from patent US10253052B2.
